# assayedSystem: T1, 5-domain TAT10772 (human)
# T1 construct: Recombinant portion of the extracellular domain, expressed in CHO cells; also called 5-mucin domain
# T1 chain: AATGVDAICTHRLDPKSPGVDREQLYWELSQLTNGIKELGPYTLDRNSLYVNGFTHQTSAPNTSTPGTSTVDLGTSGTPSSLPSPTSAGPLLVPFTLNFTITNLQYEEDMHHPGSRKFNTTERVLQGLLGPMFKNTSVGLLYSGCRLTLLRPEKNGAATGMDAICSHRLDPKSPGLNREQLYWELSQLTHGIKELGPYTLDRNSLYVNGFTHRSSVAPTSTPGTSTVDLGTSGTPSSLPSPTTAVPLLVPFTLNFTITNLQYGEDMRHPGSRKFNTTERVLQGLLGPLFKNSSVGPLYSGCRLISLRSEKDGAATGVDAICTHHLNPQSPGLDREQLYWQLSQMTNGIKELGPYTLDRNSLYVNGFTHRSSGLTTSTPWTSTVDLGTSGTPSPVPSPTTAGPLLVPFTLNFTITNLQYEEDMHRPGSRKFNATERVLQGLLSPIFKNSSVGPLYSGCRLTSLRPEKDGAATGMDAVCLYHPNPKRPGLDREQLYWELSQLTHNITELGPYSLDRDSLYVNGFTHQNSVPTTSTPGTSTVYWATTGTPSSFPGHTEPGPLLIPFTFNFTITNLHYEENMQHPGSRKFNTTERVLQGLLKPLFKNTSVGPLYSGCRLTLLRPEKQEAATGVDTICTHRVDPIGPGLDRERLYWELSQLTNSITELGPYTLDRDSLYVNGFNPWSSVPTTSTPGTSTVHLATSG
# protocol: ELISA, IgG, 5′-domain TAT10772
recordedEndpoint: Kd (nM)
Please respond with the number in nM and leave the unit unwritten.

binder	Kd / nM
3A5v4 (SEQ ID NO: 201) (antibody, V domains shown, Humanized IgG) VH: EVQLVESGGGLVQPGGSLRLSCAASGYSITNDYAWNWVRQAPGKGLEWVGYINYSGYTTYNPSLKSRFTISRDTSKNTLYLQMNSLRAEDTAVYYCARWTSGLDYWGQGTLVTVSS VL: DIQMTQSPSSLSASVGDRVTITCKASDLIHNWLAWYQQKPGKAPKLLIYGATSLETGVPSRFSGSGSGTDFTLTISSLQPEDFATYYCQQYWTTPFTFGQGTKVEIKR	2.4

Entry 3A5 chimera (mu3A5-H; SEQ ID NO: 11) (antibody, V domains shown, IgG; also called chimeric 3A5; chimeric antibody) VH: DVQLQESGPGLVNPSQSLSLTCTVTGYSITNDYAWNWIRQFPGNKLEWMGYINYSGYTTYNPSLKSRISITRDTSKNQFFLHLNSVTTEDTATYYCARWDGGLTYWGQGTLVTVSA VL: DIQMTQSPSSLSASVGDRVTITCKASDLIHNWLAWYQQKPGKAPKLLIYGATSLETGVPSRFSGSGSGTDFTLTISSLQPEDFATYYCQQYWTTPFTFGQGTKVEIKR , Kd reported as 2.3
